Data provenance: paper PMC2699512

system_name: yeast RNA triphosphatase (Cet1; S. cerevisiae RTPase) (Saccharomyces cerevisiae)
Sequence (O13297 2-549): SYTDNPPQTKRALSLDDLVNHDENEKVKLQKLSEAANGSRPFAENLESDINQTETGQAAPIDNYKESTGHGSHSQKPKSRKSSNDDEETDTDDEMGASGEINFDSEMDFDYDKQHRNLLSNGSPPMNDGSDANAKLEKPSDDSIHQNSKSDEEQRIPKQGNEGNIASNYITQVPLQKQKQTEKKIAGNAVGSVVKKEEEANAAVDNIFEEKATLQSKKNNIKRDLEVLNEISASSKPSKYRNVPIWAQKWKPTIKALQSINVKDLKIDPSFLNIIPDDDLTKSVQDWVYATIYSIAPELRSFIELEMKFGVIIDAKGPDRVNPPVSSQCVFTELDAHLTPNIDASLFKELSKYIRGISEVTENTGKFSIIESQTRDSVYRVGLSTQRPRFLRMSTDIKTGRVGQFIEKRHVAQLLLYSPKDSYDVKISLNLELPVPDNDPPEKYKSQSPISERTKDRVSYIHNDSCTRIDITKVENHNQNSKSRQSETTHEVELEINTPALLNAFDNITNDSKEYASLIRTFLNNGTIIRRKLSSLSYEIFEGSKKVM
measurement_protocol: inhibition of [γ-32P]GTP hydrolysis, TLC of released phosphate
pIC50: −log10 of the molar value.
parameter: pIC50

Worked cases, pIC50 given:
>  <compound_smiles>
Nc1nc2c(ncn2[C@@H]2O[C@H](COP(=O)(O)OP(=O)(O)OP(=O)(O)O)[C@@H](O)[C@H]2O)c(=O)[nH]1

>  <pIC50>
4.06

$$$$
>  <compound_smiles>
Nc1nc2c(ncn2[C@@H]2O[C@H](COP(=O)(O)OP(=O)(O)OP(=O)(O)O)[C@@H](O)[C@H]2O)c(=S)[nH]1

>  <pIC50>
4.80

$$$$
>  <compound_smiles>
O=P(O)(O)OP(=O)(O)OP(=O)(O)O

>  <pIC50>
6.40

$$$$
>  <compound_smiles>
O=P(O)(O)OP(=O)(O)OP(=O)(O)OC[C@H]1O[C@@H](n2cnc3c(S)ncnc32)[C@H](O)[C@@H]1O

>  <pIC50>
5.09

$$$$
>  <compound_smiles>
COc1nc(N)nc2c1ncn2[C@@H]1O[C@H](COP(=O)(O)OP(=O)(O)OP(=O)(O)O)[C@@H](O)[C@H]1O

>  <pIC50>
3.82

$$$$
>  <compound_smiles>
O=P(O)(O)OP(=O)(O)OP(=O)(O)OC[C@H]1O[C@@H](n2cnc3c(Cl)ncnc32)[C@H](O)[C@@H]1O

>  <pIC50>
5.70

$$$$
>  <compound_smiles>
Nc1nc2c(ncn2[C@H]2CC[C@@H](COP(=O)(O)OP(=O)(O)OP(=O)(O)O)O2)c(=O)[nH]1

>  <pIC50>
5.21

$$$$
>  <compound_smiles>
Cn1c(N)nc2c(ncn2[C@@H]2O[C@H](COP(=O)(O)OP(=O)(O)OP(=O)(O)O)[C@@H](O)[C@H]2O)c1=O

>  <pIC50>
5.09

$$$$
>  <compound_smiles>
Nc1nc2c(ncn2[C@H]2C[C@H](O)[C@@H](COP(=O)(O)OP(=O)(O)OP(=O)(O)O)O2)c(=O)[nH]1

>  <pIC50>
4.12

$$$$

(a) O=c1[nH]c(=O)c2ncn([C@@H]3O[C@H](COP(=O)(O)OP(=O)(O)OP(=O)(O)O)[C@@H](O)[C@H]3O)c2[nH]1
(b) Nc1nc(Cl)c2ncn([C@@H]3O[C@H](COP(=O)(O)OP(=O)(O)OP(=O)(O)O)[C@@H](O)[C@H]3O)c2n1
Min pIC50? a | b Returns: label corresponding to the selected item.
b
(b: 4.28, a: 5.00)

----------
system_name: yeast RNA triphosphatase (Cet1; S. cerevisiae RTPase) (Saccharomyces cerevisiae)
measurement_protocol: GTPase inhibition kinetics, TLC
parameter: Ki (nM)

Use these answered entries as a reference point.
>  <compound_smiles>
O=c1[nH]c(=O)c2ncn([C@@H]3O[C@H](COP(=O)(O)OP(=O)(O)OP(=O)(O)O)[C@@H](O)[C@H]3O)c2[nH]1

>  <system_name>
yeast RNA triphosphatase (Cet1; S. cerevisiae RTPase) (Saccharomyces cerevisiae)

>  <parameter>
Ki

>  <value_observed>
1800

$$$$
>  <compound_smiles>
Nc1nc2c(ncn2[C@@H]2O[C@H](COP(=O)(O)OP(=O)(O)OP(=O)(O)O)[C@@H](O)[C@H]2O)c(=O)[nH]1

>  <system_name>
yeast RNA triphosphatase (Cet1; S. cerevisiae RTPase) (Saccharomyces cerevisiae)

>  <parameter>
Ki

>  <value_observed>
16000

$$$$
>  <compound_smiles>
Cn1c(N)nc2c(ncn2[C@@H]2O[C@H](COP(=O)(O)OP(=O)(O)OP(=O)(O)O)[C@@H](O)[C@H]2O)c1=O

>  <system_name>
yeast RNA triphosphatase (Cet1; S. cerevisiae RTPase) (Saccharomyces cerevisiae)

>  <parameter>
Ki

>  <value_observed>
1500

$$$$
>  <compound_smiles>
Nc1nc2c(ncn2[C@H]2CC[C@@H](COP(=O)(O)OP(=O)(O)OP(=O)(O)O)O2)c(=O)[nH]1

>  <system_name>
yeast RNA triphosphatase (Cet1; S. cerevisiae RTPase) (Saccharomyces cerevisiae)

>  <parameter>
Ki

>  <value_observed>
1100

$$$$

(A) COc1nc(N)nc2c1ncn2[C@@H]1O[C@H](COP(=O)(O)OP(=O)(O)OP(=O)(O)O)[C@@H](O)[C@H]1O
(B) Nc1nc2c(ncn2[C@@H]2O[C@H](COP(=O)(O)OP(=O)(O)OP(=O)(O)O)[C@@H](O)[C@H]2O)c(=S)[nH]1
(C) Nc1nc(Cl)c2ncn([C@@H]3O[C@H](COP(=O)(O)OP(=O)(O)OP(=O)(O)O)[C@@H](O)[C@H]3O)c2n1
List items by Ki in falling order. Return value: ordered labels per request.
A, C, B
(A: 27000 nM, C: 9600 nM, B: 2900 nM)

(P) O=P(O)(O)OP(=O)(O)OP(=O)(O)OC[C@H]1O[C@@H](n2cnc3c(Cl)ncnc32)[C@H](O)[C@@H]1O
(Q) Nc1nc2c(ncn2[C@H]2C[C@H](O)[C@@H](COP(=O)(O)OP(=O)(O)OP(=O)(O)O)O2)c(=O)[nH]1
In the pair P and Q , the larger recorded Ki belongs to which? Output the label that corresponds to your choice.
Q
(Q: 14000 nM, P: 400 nM)
